Data provenance: patent US9206432B2

- System: lacZ under control of the tetA promoter (PtetA) in E. coli KM3
- Assay type: cell-based
- CONDITION SET: Table 4; thifensulfuron 20 ppm; 48 hrs at 30° C.
MEASUREMENT NAME: relative β-galactosidase activity, inducer Ts

L1-20: SU-responsive TetR(B) variant, library L1 hit, SEQ ID NO: 6 (protein, Sulfonylurea responsive repressor L1-20) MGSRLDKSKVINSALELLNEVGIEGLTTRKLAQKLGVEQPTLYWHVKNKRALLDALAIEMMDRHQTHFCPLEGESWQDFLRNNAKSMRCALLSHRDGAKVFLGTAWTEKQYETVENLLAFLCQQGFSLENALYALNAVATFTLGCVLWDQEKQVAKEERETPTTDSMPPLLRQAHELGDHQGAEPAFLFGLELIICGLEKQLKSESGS | 2.6
L1-2: SU-responsive TetR(B) ligand binding domain variant, library L1 hit, SEQ ID NO: 3 (protein, Sulfonylurea responsive repressor L1-02) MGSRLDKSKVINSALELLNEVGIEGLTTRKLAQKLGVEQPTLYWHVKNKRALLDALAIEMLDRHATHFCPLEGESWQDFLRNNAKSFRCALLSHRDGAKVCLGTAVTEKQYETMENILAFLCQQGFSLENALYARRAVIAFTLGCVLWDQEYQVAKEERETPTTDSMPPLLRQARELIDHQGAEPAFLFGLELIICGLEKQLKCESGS | 1.6
L1-22: SU-responsive TetR(B) variant, library L1 hit, SEQ ID NO: 7 (protein, Sulfornylurea responsive repressor L1-22) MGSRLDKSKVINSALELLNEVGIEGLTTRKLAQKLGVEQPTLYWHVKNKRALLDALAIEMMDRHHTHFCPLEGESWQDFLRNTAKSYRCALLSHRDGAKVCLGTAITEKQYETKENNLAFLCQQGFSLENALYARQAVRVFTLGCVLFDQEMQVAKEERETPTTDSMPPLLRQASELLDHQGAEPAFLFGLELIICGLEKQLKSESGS | 0.0

Please turn your attention to the following entry.
Entry L1-7: SU-responsive TetR(B) variant, library L1 hit, SEQ ID NO: 4 (protein, Sulfonylurea responsive repressor L1-07) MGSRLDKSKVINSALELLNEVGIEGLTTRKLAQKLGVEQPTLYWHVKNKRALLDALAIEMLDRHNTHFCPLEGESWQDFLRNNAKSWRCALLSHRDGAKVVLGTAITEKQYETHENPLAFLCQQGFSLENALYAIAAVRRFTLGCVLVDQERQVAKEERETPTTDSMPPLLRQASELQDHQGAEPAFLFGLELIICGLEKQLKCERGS : reported relative β-galactosidase activity, inducer Ts = ? 0.1
